Biological target: mouse PIEZO1 (PIEZO1-mScarlet / PIEZO1-ALFA-mGL) (Mus musculus)
Construct: full-length; C-terminal mScarlet (SG linker), or ALFA tag inserted after H86 plus C-terminal mGreenLantern (SG linker); transiently expressed in N2a-P1KO (mouse Neuro-2a PIEZO1-knockout) cells; homotrimer
Assay: calcium imaging (genetically encoded Ca2+ indicator), peak F/F0
Format: cell-based
VALUE TYPE: EC50 (nM)
Your answer should be a plain number; it is taken to be in nM.

input: Name the recorded EC50 for `O=C(O)c1ccc(-c2nnc(SCc3c(Cl)cccc3Cl)s2)cc1` .
output: 30

====

Molecular target: mouse PIEZO1 (PIEZO1-mScarlet / PIEZO1-ALFA-mGL) (Mus musculus, UniProt E2JF22, F1715A/V1714A)
Construct: full-length; C-terminal mScarlet (SG linker), or ALFA tag inserted after H86 plus C-terminal mGreenLantern (SG linker); transiently expressed in N2a-P1KO (mouse Neuro-2a PIEZO1-knockout) cells; homotrimer
Sequence (E2JF22 whole entry V1714A/F1715A): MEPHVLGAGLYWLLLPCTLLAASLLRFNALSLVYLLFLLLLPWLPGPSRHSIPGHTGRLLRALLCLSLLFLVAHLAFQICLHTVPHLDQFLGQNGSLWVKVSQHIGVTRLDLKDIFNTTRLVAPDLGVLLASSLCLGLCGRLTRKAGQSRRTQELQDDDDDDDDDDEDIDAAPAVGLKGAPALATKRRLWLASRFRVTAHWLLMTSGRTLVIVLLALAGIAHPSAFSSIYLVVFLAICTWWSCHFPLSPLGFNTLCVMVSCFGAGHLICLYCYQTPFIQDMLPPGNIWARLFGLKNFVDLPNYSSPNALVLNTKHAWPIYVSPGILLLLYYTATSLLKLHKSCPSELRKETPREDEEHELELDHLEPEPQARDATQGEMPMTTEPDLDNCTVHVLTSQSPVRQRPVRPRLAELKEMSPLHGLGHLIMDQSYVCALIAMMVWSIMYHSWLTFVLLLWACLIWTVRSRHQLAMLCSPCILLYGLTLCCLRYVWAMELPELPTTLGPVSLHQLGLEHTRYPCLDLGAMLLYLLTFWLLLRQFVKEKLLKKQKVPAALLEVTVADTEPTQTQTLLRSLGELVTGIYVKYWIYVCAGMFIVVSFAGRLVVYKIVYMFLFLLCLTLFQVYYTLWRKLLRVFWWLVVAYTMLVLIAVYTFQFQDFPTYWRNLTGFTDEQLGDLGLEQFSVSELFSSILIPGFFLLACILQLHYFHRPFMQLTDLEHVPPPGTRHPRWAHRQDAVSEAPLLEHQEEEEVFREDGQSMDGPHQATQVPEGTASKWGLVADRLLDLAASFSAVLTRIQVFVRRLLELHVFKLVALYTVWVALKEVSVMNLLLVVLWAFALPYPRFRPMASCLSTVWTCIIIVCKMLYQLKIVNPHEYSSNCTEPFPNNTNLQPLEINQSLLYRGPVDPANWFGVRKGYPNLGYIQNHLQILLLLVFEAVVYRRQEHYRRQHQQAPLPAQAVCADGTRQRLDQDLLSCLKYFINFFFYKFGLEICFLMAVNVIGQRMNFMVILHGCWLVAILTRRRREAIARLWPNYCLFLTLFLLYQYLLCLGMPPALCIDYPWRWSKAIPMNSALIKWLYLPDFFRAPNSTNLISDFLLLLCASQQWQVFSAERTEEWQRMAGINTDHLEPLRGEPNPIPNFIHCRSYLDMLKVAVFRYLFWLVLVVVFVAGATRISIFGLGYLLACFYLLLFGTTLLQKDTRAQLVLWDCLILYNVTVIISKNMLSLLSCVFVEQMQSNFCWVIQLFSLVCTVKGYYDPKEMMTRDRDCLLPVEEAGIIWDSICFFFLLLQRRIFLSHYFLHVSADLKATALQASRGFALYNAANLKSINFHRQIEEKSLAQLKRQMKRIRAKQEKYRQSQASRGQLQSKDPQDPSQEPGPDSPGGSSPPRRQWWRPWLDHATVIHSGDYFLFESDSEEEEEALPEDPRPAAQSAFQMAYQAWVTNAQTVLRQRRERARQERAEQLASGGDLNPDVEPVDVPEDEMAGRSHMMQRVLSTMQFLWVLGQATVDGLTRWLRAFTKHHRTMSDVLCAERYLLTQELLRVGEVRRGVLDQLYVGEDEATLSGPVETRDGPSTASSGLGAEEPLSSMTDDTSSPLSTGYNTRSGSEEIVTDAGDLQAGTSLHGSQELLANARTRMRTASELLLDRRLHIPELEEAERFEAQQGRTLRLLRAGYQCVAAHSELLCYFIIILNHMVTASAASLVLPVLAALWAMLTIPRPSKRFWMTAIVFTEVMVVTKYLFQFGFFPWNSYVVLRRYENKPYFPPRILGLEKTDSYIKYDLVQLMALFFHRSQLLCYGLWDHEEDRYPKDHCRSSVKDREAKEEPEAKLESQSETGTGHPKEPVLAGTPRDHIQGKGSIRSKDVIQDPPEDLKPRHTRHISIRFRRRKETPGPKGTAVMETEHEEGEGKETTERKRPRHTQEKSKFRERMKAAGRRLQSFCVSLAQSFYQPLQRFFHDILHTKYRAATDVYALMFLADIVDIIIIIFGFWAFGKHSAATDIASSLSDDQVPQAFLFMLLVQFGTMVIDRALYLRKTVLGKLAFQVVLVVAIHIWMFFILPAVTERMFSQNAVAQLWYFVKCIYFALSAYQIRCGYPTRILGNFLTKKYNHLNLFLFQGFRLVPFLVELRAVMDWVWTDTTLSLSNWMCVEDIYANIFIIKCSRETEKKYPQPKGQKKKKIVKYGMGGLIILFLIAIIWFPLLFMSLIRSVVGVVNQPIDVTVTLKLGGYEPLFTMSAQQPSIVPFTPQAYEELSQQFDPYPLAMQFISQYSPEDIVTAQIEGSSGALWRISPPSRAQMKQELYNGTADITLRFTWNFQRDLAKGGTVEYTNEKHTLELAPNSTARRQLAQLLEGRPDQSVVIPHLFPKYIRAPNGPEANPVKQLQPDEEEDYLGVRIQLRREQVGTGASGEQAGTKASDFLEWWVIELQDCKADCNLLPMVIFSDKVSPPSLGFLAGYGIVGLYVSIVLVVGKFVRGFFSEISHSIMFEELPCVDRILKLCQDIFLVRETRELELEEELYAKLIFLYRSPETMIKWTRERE
Test: calcium imaging (genetically encoded Ca2+ indicator), peak F/F0
VALUE TYPE: EC50
Note: a bare number is incomplete; add the unit.

input: Name the recorded EC50 for O=C(O)c1ccc(-c2nnc(SCc3c(Cl)cccc3Cl)s2)cc1 [Yoda2] .
output: 67 nM
